- study.target: AChE (Electrophorus electricus)
- Construct: electric eel, and horse serum were used as source of AChE and BuChE, respectively; from tissue; host or cells: electric eel
- Sequence (O42275 24-633): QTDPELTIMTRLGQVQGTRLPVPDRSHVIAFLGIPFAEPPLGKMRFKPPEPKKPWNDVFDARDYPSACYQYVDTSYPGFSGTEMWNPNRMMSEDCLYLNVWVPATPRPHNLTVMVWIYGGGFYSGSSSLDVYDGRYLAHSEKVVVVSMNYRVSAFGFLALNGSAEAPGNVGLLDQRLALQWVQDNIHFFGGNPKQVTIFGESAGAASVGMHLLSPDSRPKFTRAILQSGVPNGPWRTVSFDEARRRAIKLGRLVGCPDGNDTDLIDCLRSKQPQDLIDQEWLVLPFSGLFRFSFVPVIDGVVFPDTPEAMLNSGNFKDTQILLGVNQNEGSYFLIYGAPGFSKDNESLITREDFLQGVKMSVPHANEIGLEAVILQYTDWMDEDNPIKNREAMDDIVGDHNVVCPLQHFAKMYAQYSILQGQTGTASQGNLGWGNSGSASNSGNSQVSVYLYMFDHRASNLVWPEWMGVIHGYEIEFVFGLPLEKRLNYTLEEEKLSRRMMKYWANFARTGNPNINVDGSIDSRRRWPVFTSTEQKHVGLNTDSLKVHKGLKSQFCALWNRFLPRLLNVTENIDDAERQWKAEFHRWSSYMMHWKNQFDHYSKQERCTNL
- test.details: biochemical
- Format: biochemical
- condition.parameters: electric eel AChE; Ellman's method; SEM of three experiments
Returns: string. Value is label 1 if measured IC50 is below 10 µM, and label 0 if it is greater than or equal to it.

O=c1oc2ccccc2cc1-c1nn(CN2CCOCC2)c(=S)o1 [Compound 11h]	label 0

Q: # TODO verify IC50 < 10 µM strictly for this compound: O=c1oc2ccccc2cc1-c1csc(NN=C(c2ccccc2)c2ccccc2)n1 [Compound 6n]
A: label 0

Q: Also need CC(=NNc1nc(-c2cc3ccccc3oc2=O)cs1)c1cccc(N)c1 [Compound 6b] , thanks.
A: label 1

Q: How about COc1ccc(/C(C)=N/Nc2nc(-c3cc4ccccc4oc3=O)cs2)cc1I [Compound 6l] ?
A: label 0

Q: Now consider C/C(=N\Nc1nc(-c2cc3ccccc3oc2=O)cs1)c1ccc(Br)cc1 [Compound 6e] .
A: label 0

Q: Please give the result for CCCCNCn1nc(-c2cc3ccccc3oc2=O)oc1=S [Compound 11b] too.
A: label 1

Q: What would you report for O=c1oc2ccccc2cc1-c1nn(CNc2cccc(Cl)c2)c(=S)o1 [Compound 11e] ?
A: label 0

Q: One more compound: COc1ccc(/C(C)=N/Nc2nc(-c3cc4ccccc4oc3=O)cs2)c(O)c1 [Compound 6j]
A: label 1

The values you see were collected from paper PMC5879128.
